Target: HLA-A*24:02
Assay: IEDB peptide-MHC binding, purified MHC/competitive/fluorescence; bounds were set here for any values at or beyond the usual limits of such assays
Settings: source organism: Variola virus
MEASUREMENT LABEL: IC50 (µM)
Please state the figure in µM; there is no need to write the unit.

Look up IC50 with HLA-A*24:02 for this sequence: EDDRERLKV
0.0168

----------
Target: HLA-A*02:01
Assay: IEDB peptide-MHC binding, purified MHC/competitive/radioactivity; filed as Kd, often an IC50 or EC50 that approximates it; bounds were set here for any values at or beyond the usual limits of such assays
Details: source organism: Dengue virus 4 Philippines/H241/1956
Catalogue of Kd readings, one per entry.
Please state the figure in nM; there is no need to write the unit.

Example cases with answers are listed next.
- ITEM SEQUENCE: "KQITNELNYV"
  UNIT STRING: "nM"
  VALUE MEASURED: 28.8
- ITEM SEQUENCE: "ALLAGFMAYM"
  UNIT STRING: "nM"
  VALUE MEASURED: 5.69

# evaluate next
Value lookup for Kd; key = WLVHKQWFL
3.99

----------
Target: HLA-A*02:19
Experiment: IEDB peptide-MHC binding, purified MHC/direct/fluorescence; filed as Kd, often an IC50 or EC50 that approximates it; bounds were set here for any values at or beyond the usual limits of such assays
Conditions: source organism: Yersinia enterocolitica subsp. enterocolitica 8081
pKd: −log10 of the molar value.
MEASUREMENT LABEL: pKd

Value lookup for pKd; key = LAYLAGWII
≤ 4.70

----------
Catalogue of Kd readings, one per entry.
Biological target: HLA-B*15:01
Experiment: IEDB peptide-MHC binding, purified MHC/direct/fluorescence; filed as Kd, often an IC50 or EC50 that approximates it; bounds were set here for any values at or beyond the usual limits of such assays
Details: source organism: Brucella melitensis

- ITEM SEQUENCE: "RLWNGRRCR"
  Kd: "≥ 20 µM"

Value lookup for Kd; key = RVISDGYFK
≥ 20 µM

----------
Catalogue of pKd readings, one per entry.
Biological target: HLA-A*30:01
Assay: IEDB peptide-MHC binding, purified MHC/competitive/radioactivity; filed as Kd, often an IC50 or EC50 that approximates it; bounds were set here for any values at or beyond the usual limits of such assays
Settings: source organism: Vaccinia virus WR
Keep it numeric: pKd is minus log10 of the concentration in mol/L.

Value lookup for pKd; key = VVKATYLLK
9.49

Next record, please: RIRQQLPLY
7.89

Next record, please: AINNRICVM
6.87

Next record, please: HTKIDSMFL
8.84

Next record, please: ALLELFNAF
6.45

Next record, please: RVRISLIYL
10.04

Next record, please: KSKNINIEV
9.49

Next record, please: ISRNKNIFV
8.14

Next record, please: KSHAAYIDY
7.92

Next record, please: KAYHIIFFV
6.39

Next record, please: LSIFFYSSF
6.88

Next record, please: FQYVSYSNF
4.90

Next record, please: MVLPGAANK
7.23

Next record, please: IASTLIVTI
8.00

Next record, please: SQVKCCHYF
7.09

Next record, please: TTKNGQPRK
9.63

----------
Molecular target: HLA-A*26:01
Assay: IEDB peptide-MHC binding, purified MHC/competitive/fluorescence; filed as Kd, often an IC50 or EC50 that approximates it; bounds were set here for any values at or beyond the usual limits of such assays
Details: source organism: Mycobacterium tuberculosis C
MEASUREMENT LABEL: Kd (nM)
Please state the figure in nM; there is no need to write the unit.

Value lookup for Kd; key = LTFLDCLYY
110

----------
Molecular target: HLA-A*31:01
Test: IEDB peptide-MHC binding, purified MHC/competitive/fluorescence; filed as Kd, often an IC50 or EC50 that approximates it; bounds were set here for any values at or beyond the usual limits of such assays
Settings: source organism: Dictyostelium discoideum
MEASUREMENT LABEL: Kd (nM)
Please state the figure in nM; there is no need to write the unit.

Value lookup for Kd; key = MGFGHRIYK
1.43

----------
Biological target: HLA-A*31:01
Assay: IEDB peptide-MHC binding, purified MHC/competitive/fluorescence; filed as Kd, often an IC50 or EC50 that approximates it; bounds were set here for any values at or beyond the usual limits of such assays
Conditions: source organism: Salmonella enterica subsp. arizonae
MEASUREMENT LABEL: Kd (nM)
Please state the figure in nM; there is no need to write the unit.

Value lookup for Kd; key = IVYLIDCER
88.3

----------
Target: HLA-B*46:01
Experiment: IEDB peptide-MHC binding, purified MHC/competitive/fluorescence; filed as Kd, often an IC50 or EC50 that approximates it; bounds were set here for any values at or beyond the usual limits of such assays
Details: source organism: Brucella abortus S19
pKd: −log10 of the molar value.
MEASUREMENT LABEL: pKd

Look up pKd with HLA-B*46:01 for this sequence: KQWIVAGAI
≤ 4.70

----------
Target: HLA-C*05:01
Experiment: IEDB peptide-MHC binding, purified MHC/direct/fluorescence; filed as Kd, often an IC50 or EC50 that approximates it; bounds were set here for any values at or beyond the usual limits of such assays
Settings: source organism: Rickettsia bellii RML369-C
MEASUREMENT LABEL: Kd

Look up Kd with HLA-C*05:01 for this sequence: FTIGNMFSL
≥ 20 µM

----------
Molecular target: HLA-A*11:01
Experiment: IEDB peptide-MHC binding, purified MHC/direct/fluorescence; filed as Kd, often an IC50 or EC50 that approximates it; bounds were set here for any values at or beyond the usual limits of such assays
Conditions: source organism: Mycobacterium tuberculosis
MEASUREMENT LABEL: Kd (nM)
Please state the figure in nM; there is no need to write the unit.

Value lookup for Kd; key = LTFLDCLYY
73.3

----------
Target: HLA-B*27:05
Experiment: IEDB peptide-MHC binding, purified MHC/direct/fluorescence; filed as Kd, often an IC50 or EC50 that approximates it; bounds were set here for any values at or beyond the usual limits of such assays
Settings: source organism: Shewanella violacea
pKd: −log10 of the molar value.
MEASUREMENT LABEL: pKd

Value lookup for pKd; key = ETKGKRRLL
≤ 4.70

----------
Biological target: HLA-A*33:01
Test: IEDB peptide-MHC binding, purified MHC/competitive/radioactivity; filed as Kd, often an IC50 or EC50 that approximates it; bounds were set here for any values at or beyond the usual limits of such assays
Settings: source organism: Lymphocytic choriomeningitis virus (strain Armstrong)
MEASUREMENT LABEL: Kd

Value lookup for Kd; key = SCQGSDDIR
≥ 51.4 µM

----------
Target: HLA-A*33:01
Test: IEDB peptide-MHC binding, purified MHC/competitive/radioactivity; filed as Kd, often an IC50 or EC50 that approximates it; bounds were set here for any values at or beyond the usual limits of such assays
Conditions: source organism: Mammarenavirus guanaritoense
Catalogue of Kd readings, one per entry.

- ITEM SEQUENCE: "LCCSLDHSK"
  Kd: "7.34 µM"
- ITEM SEQUENCE: "CCNWLDRCRH"
  Kd: "15.9 µM"
- ITEM SEQUENCE: "FTVKLGGVFH"
  Kd: "12.5 µM"

# evaluate next
Look up Kd with HLA-A*33:01 for this sequence: VCEEFFHQK
≥ 77.7 µM

----------
Biological target: HLA-B*27:03
Test: IEDB peptide-MHC binding, purified MHC/competitive/fluorescence; filed as Kd, often an IC50 or EC50 that approximates it; bounds were set here for any values at or beyond the usual limits of such assays
Settings: source organism: Orthohantavirus sinnombreense
pKd: −log10 of the molar value.
MEASUREMENT LABEL: pKd

Value lookup for pKd; key = LVTARQKLK
≤ 4.70

----------
Target: HLA-A*01:01
Assay: IEDB peptide-MHC binding, purified MHC/direct/fluorescence; filed as Kd, often an IC50 or EC50 that approximates it; bounds were set here for any values at or beyond the usual limits of such assays
Conditions: source organism: Buffalopox virus
pKd: −log10 of the molar value.
MEASUREMENT LABEL: pKd

Value lookup for pKd; key = IHSDQLSKF
≤ 4.70

----------
Catalogue of pKd readings, one per entry.
Biological target: HLA-A*03:01
Test: IEDB peptide-MHC binding, purified MHC/competitive/radioactivity; filed as Kd, often an IC50 or EC50 that approximates it; bounds were set here for any values at or beyond the usual limits of such assays
Conditions: source organism: SARS coronavirus Tor2
Keep it numeric: pKd is minus log10 of the concentration in mol/L.

- ITEM SEQUENCE: "AAISDYDYY"
  MEASUREMENT LABEL: "pKd"
  VALUE MEASURED: 6.16

Value lookup for pKd; key = SQIQLSLLK
6.05

Next record, please: LLFVVEVVDK
5.36
